Experiment: Toxicity liver stage against HepG2, at 10uM
Format: cell-based
Parameters: test concentration 10 uM, cell line HepG2-A16-CD81EGFP
Details: human, HepG2-A16-CD81EGFP cells; read-out: INHIBITION
Listed here: items and their measured cytotoxicity at 10 µM.
// return numeric value only (unit: %, not printed)

>  <compound>
COC1C[C@@H]2CN(C(=O)c3[nH]nc4c3CCCC4)C[C@@H]2C1 (stereo partly specified)

>  <unit text>
%

>  <cytotoxicity at 10 µM>
0.0252

$$$$
>  <compound>
Cc1cc(CNC(=O)CC2CCN(C(C)C)CC2)n(C)n1

>  <unit text>
%

>  <cytotoxicity at 10 µM>
-1.77

$$$$
>  <compound>
CCc1ccc(C(=O)N2CCCN(Cc3nccn3CC)CC2)s1

>  <unit text>
%

>  <cytotoxicity at 10 µM>
-8.72

$$$$
>  <compound>
CCC(CC)NC(=O)c1ccc2nnc(C3CCN(C(C)=O)C3)n2c1 (stereo unspecified)

>  <unit text>
%

>  <cytotoxicity at 10 µM>
-2.19

$$$$
>  <compound>
Fc1ccc(-c2cc(NCCC3CCOC3)n3nccc3n2)cc1 (stereo unspecified)

>  <unit text>
%

>  <cytotoxicity at 10 µM>
2.8

$$$$
>  <compound>
CN1C(=O)CCCC12CCCN(C(=O)c1ccc3c(c1)OCO3)C2 (stereo unspecified)

>  <unit text>
%

>  <cytotoxicity at 10 µM>
0.758

$$$$
>  <compound>
CC1(C(=O)N2CCOCC2)CN(Cc2ccccc2F)CCO1 (stereo unspecified)

>  <unit text>
%

>  <cytotoxicity at 10 µM>
2.03

$$$$
>  <compound>
Cc1ccc(C(CNCc2cccn2C)N2CCOCC2)s1 (stereo unspecified)

>  <unit text>
%

>  <cytotoxicity at 10 µM>
14.9

$$$$

Note to self: cytotoxicity at 10 µM recorded for `CC(C)N1CCCn2nc(C(=O)NCCc3c[nH]cn3)cc2C1` was 14.2

Note to self: cytotoxicity at 10 µM recorded for `CC(=O)N1CCN2C[C@H](CO)[C@@H](c3ccccc3)[C@H]2C1` was 3.54

Note to self: cytotoxicity at 10 µM recorded for `Cc1c(S(=O)(=O)N2CCOCC2)cc2c(C)cc(=O)n3c2c1CCC3` was 3.36

====

Experiment: Toxicity liver stage against HepG2, at 10uM
Format: cell-based
Set-up: test concentration 10 uM, cell line HepG2-A16-CD81EGFP
Conditions: human, HepG2-A16-CD81EGFP cells; read-out: INHIBITION
Listed here: items and their measured cytotoxicity at 10 µM.
// return numeric value only (unit: %, not printed)

>  <compound>
c1cc2c(cc1-c1noc3c1CN(C1CCSCC1)CC3)OCO2

>  <cytotoxicity at 10 µM (%)>
5.51

$$$$
>  <compound>
COc1ccc2c(c1)OCC(CNC(=O)c1cnc(NC(C)C)nc1)C2 (stereo unspecified)

>  <cytotoxicity at 10 µM (%)>
-5.07

$$$$

Note to self: cytotoxicity at 10 µM recorded for `CN(C)c1cc(CNC(=O)c2ccccc2Cl)ccn1` was -8.28

Note to self: cytotoxicity at 10 µM recorded for NC(=O)C1CN(C(=O)NCC2(c3ccc(F)cc3)CCC2)CCO1 (stereo unspecified) was -5.07

Note to self: cytotoxicity at 10 µM recorded for `COc1cc(N2CC[C@@H](O)[C@@H]2Cc2ccncc2)ncn1` was -84.5

Note to self: cytotoxicity at 10 µM recorded for `Cc1csc([C@@H]2C[C@@H]3CCN(C(=O)c4cccn4C)C[C@H]3O2)n1` was 4.12

Note to self: cytotoxicity at 10 µM recorded for CC(C)CC1SCC(=O)Nc2c1cnn2-c1ccccc1F (stereo unspecified) was -8.62

Note to self: cytotoxicity at 10 µM recorded for `COc1cccc(-n2cc(CN(C)Cc3ccnc(C(C)C)n3)cn2)c1` was -1.29

Note to self: cytotoxicity at 10 µM recorded for CC(Cn1cccn1)NC(=O)N1CCN(Cc2ccncc2)CC1 (stereo unspecified) was -20.8

Note to self: cytotoxicity at 10 µM recorded for `Cc1nc2cc(O)nn2c(C)c1CCC(=O)N(C)Cc1ccccc1` was -141

Note to self: cytotoxicity at 10 µM recorded for c1ccc(CN2CCC3(COCc4cnc(NCC5CC5)nc43)C2)cc1 (stereo unspecified) was 12.5

====

Assay: Toxicity liver stage against HepG2, at 10uM
Assay type: cell-based
Design: test concentration 10 uM, cell line HepG2-A16-CD81EGFP
Conditions: human, HepG2-A16-CD81EGFP cells; read-out: INHIBITION
experimental endpoint: cytotoxicity at 10 µM (%)
// return numeric value only (unit: %, not printed)

Use the examples below as a reference point.
>  <compound>
COc1ccc(C[C@H]2CN(C3CCOCC3)CC[C@H]2OCC2CC2)cc1

>  <cytotoxicity at 10 µM / %>
-6.57

$$$$
>  <compound>
COC(=O)N1CCc2ccccc2C1C(=O)NCC(F)(F)F (stereo unspecified)

>  <cytotoxicity at 10 µM / %>
-2.96

$$$$
>  <compound>
CCS(=O)(=O)N1CCc2ccc(NC(=O)Nc3ccc(F)cc3F)cc21

>  <cytotoxicity at 10 µM / %>
51.2

$$$$

Note to self: cytotoxicity at 10 µM recorded for CN1C(=O)C(c2ccccc2)CC12CCN(CCO)CC2 (stereo unspecified) was 5.12

Note to self: cytotoxicity at 10 µM recorded for `CN(C)c1cc(CNC(=O)c2ccc(=O)[nH]n2)ccn1` was 0.962

Note to self: cytotoxicity at 10 µM recorded for `COC[C@H]1CN(CC2CC2)C(=O)[C@@H]2CCN(Cc3ccoc3)CC[C@H]12` was -2.05

====

Listed here: items and their measured cytotoxicity at 10 µM.
Assay: Toxicity liver stage against HepG2, at 10uM
Format: cell-based
Set-up: test concentration 10 uM, cell line HepG2-A16-CD81EGFP
Settings: human, HepG2-A16-CD81EGFP cells; read-out: INHIBITION
// return numeric value only (unit: %, not printed)

Use the examples below as a reference point.
>  <compound>
COCC1CN(C(=O)CC2=CCCCC2)Cc2nnn(CC3CC3)c21 (stereo unspecified)

>  <unit text>
%

>  <cytotoxicity at 10 µM>
-116

$$$$
>  <compound>
O=S(=O)(N1CCN(CC2CC2)CC1)N1CCCC1c1ccco1 (stereo unspecified)

>  <unit text>
%

>  <cytotoxicity at 10 µM>
1.24

$$$$
>  <compound>
CN(Cc1ccccc1)CC1(O)CCCN(CC(C)(C)C)C1=O (stereo unspecified)

>  <unit text>
%

>  <cytotoxicity at 10 µM>
-12.4

$$$$
>  <compound>
Cc1ccc(N2CC3(COCCN(Cc4ccncc4)C3)OCC2=O)s1 (stereo unspecified)

>  <unit text>
%

>  <cytotoxicity at 10 µM>
8.59

$$$$
>  <compound>
COCCC(=O)N1C[C@@H](c2ccccc2F)[C@@]2(CCCC(=O)N2)C1

>  <unit text>
%

>  <cytotoxicity at 10 µM>
0.55

$$$$
>  <compound>
COCCn1/c(=N\C(=O)CN(C)S(C)(=O)=O)sc2cccc(F)c21

>  <unit text>
%

>  <cytotoxicity at 10 µM>
-11.5

$$$$

Note to self: cytotoxicity at 10 µM recorded for COCC(C)NC(=O)CN1CCC(CO)CC1 (stereo unspecified) was -6.16

Note to self: cytotoxicity at 10 µM recorded for `Cc1nc(C(C)(C)C)sc1C(=O)NCCn1cccn1` was -3.17

Note to self: cytotoxicity at 10 µM recorded for `Cn1c(-c2ccccc2Cl)nc2cc(C(=O)NC(CO)CO)cnc21` was -10.8

Note to self: cytotoxicity at 10 µM recorded for `CC(C)NC(=O)[C@@H]1C[C@@H](N)CN1C(=O)CCSCc1ccc(F)cc1` was -3.43

Note to self: cytotoxicity at 10 µM recorded for CN(C)C(=O)c1nc(CN2CC(Cc3ccccc3)CC2=O)no1 (stereo unspecified) was -0.849

====

Assay: Toxicity liver stage against HepG2, at 10uM
Type: cell-based
Set-up: test concentration 10 uM, cell line HepG2-A16-CD81EGFP
Conditions: human, HepG2-A16-CD81EGFP cells; read-out: INHIBITION
experimental endpoint: cytotoxicity at 10 µM (%)
// return numeric value only (unit: %, not printed)

Use the examples below as a reference point.
>  <compound>
CC(C1CC1)N(CC(=O)NC(=O)NC1CC1)C1CC1 (centres undefined)

>  <unit text>
%

>  <cytotoxicity at 10 µM>
4.84

$$$$
>  <compound>
CC(=O)NC(CC(=O)Nc1ccc(C)cn1)c1ccccc1 (centres undefined)

>  <unit text>
%

>  <cytotoxicity at 10 µM>
-12.5

$$$$
>  <compound>
COc1ccc(C(=O)CCC(=O)NCc2c(C)noc2C)cc1F

>  <unit text>
%

>  <cytotoxicity at 10 µM>
2.43

$$$$
>  <compound>
c1cnn(CC2CCCCN2Cc2noc(C3CC3)n2)c1 (centres undefined)

>  <unit text>
%

>  <cytotoxicity at 10 µM>
-3.48

$$$$
>  <compound>
Fc1cccc(-n2ccc(CN3CCCC3Cn3cccn3)n2)c1 (centres undefined)

>  <unit text>
%

>  <cytotoxicity at 10 µM>
-13.1

$$$$
>  <compound>
Cn1cc(S(=O)(=O)NC(=O)C2(c3ccccc3)CCC2)cn1

>  <unit text>
%

>  <cytotoxicity at 10 µM>
-6.85

$$$$

Note to self: cytotoxicity at 10 µM recorded for Cc1occc1CNC(=O)C1(C)CCCN1C(=O)c1ccccc1 (centres undefined) was -9.34

Note to self: cytotoxicity at 10 µM recorded for `COc1ncc(NCc2cc(C#N)cs2)cc1C(N)=O` was 3.8

Note to self: cytotoxicity at 10 µM recorded for CS(=O)(=O)c1ccc(NCC2CCCO2)c(S(C)(=O)=O)c1 (centres undefined) was 3.72

Note to self: cytotoxicity at 10 µM recorded for `CCc1ncc2c(n1)CN(CCCc1nc3ccccc3o1)CC2` was -10.6

Note to self: cytotoxicity at 10 µM recorded for Cc1cnc(N2CCC3(CC2)CC(NC(=O)N(C)C)CO3)nc1 (centres undefined) was 6.31

Note to self: cytotoxicity at 10 µM recorded for `CCN(CC)S(=O)(=O)c1ccc(C(=O)NC(C)(C)C)cc1` was -6.79

Note to self: cytotoxicity at 10 µM recorded for Cc1nc(C2CCCN(C(=O)C3=NN(C(C)C)C(=O)CC3)C2)no1 (centres undefined) was -3.32

Note to self: cytotoxicity at 10 µM recorded for `C(=C\c1ccc(CN2CCCC2)cn1)/c1ccccc1` was 9.81

Note to self: cytotoxicity at 10 µM recorded for CCn1nc(C)c(NC(=O)CN2CCC(c3ccccc3Cl)C2)c1C (centres undefined) was -7.58

Note to self: cytotoxicity at 10 µM recorded for `CC(C)Cn1cc(NC(=O)NC(C)(C)c2nccs2)cn1` was 7.44

Note to self: cytotoxicity at 10 µM recorded for `CCn1cc(CNCc2ccc(C(=O)OC)cc2)c(C)n1` was -3.78

Note to self: cytotoxicity at 10 µM recorded for `COc1cccc(CN2CCC3(CCN(C(=O)[C@H]4CCCO4)CC3)C2)c1` was 6.57

Note to self: cytotoxicity at 10 µM recorded for `CN(C)C(=O)N1C[C@H]2CC[C@@H](C1)N(C(=O)CCCn1cncn1)C2` was -12.2

Note to self: cytotoxicity at 10 µM recorded for `CCn1cc(CNc2ccc(F)c(N3CCCS3(=O)=O)c2)cn1` was -17

Note to self: cytotoxicity at 10 µM recorded for `Cc1ccc(NC2CCN(C(=O)c3cncnc3C)CC2)nn1` was -3.04
